# System: SK-OV-3 ovarian
# measurement.protocol: NCI tumour cell line growth inhibition, 48 h; in the data active = GI50 below about 0.43 µM; inactive = the rest
Please answer using one outcome listed in active, inactive

Kindly provide the recorded test outcome for the following compound: COc1cc2c(cc1OCCCN1CCN(C(=S)SCCC(C#N)(c3ccccc3)c3ccccc3)CC1)N=C[C@@H]1CCCN1C2=O
inactive

***
Recorded test call requested for COc1cc(N2CCC(N)CC2)ccc1Nc1ncc(Cl)c(-c2c[nH]c3ccccc23)n1
inactive

What outcome does the record of this test show for O=C(Nc1cccc(-n2cc(-c3ccncc3)c(-c3ccc(Cl)c(O)c3)n2)c1)Nc1ccc(Cl)c(Cl)c1 ?
inactive

What classification did O=C(N/N=C/c1ccncc1)c1ccc(F)cc1 end up with in this test?
inactive

Check the results log: what was the call for CN(C)c1ccc(/C=c2/c3cc(O)ccc3n3c2cc(-c2ccccc2)[n+]3C)cc1 ?
inactive

Give the logged outcome of this assay for the following compound: CCCCOC(=O)c1c(C)[nH]c(/C=C2\N=C(c3ccc[nH]3)C=C2OC)c1C
inactive

Give the logged outcome of this assay for the following compound: O=C1OCC2=C1C(c1cccc(Cl)c1)c1cc3c(cc1N2CCO)CCC3 (configuration not stated)
active

Which outcome did this test record for the compound COc1ccc(/C=C/C(=O)/C=C(O)/C=C/c2ccc(OC)c(OC)c2)cc1OC ?
inactive

Which outcome was entered for the compound CO/C(=C1/NC(=O)C(Cc2ccc(O)c(Br)c2)N(C)C(=O)C(C)NC(=O)CCC/C=C(\C)CCC(C)OC1=O)c1ccccc1 (configuration not stated) in this test?
active

Assay result, entry COc1ncc(-c2ccc3nccc(C#CCCCCC(=O)NO)c3c2)cc1NS(=O)(=O)c1ccc(F)cc1F — outcome?
active

Hey, what did the test say about CC(=O)Nc1cc2c3c(cccc3c1)-c1ccccc1-2 ?
inactive

Dear colleague, could you share the recorded outcome for O=c1/c(=C\c2ccc(Br)cc2)sc2n1C(c1ccc(Br)cc1)C1=C(N=2)c2ccc3ccccc3c2OCC1 (configuration not stated) when you have a moment?
inactive

Record lookup: outcome of this test for Cc1cc(C)c2c(c1)N(C)c1ncnc(-n3cnc4cc(C)ccc43)c1CC2C (configuration not stated) ?
inactive

Per the assay record, what outcome was assigned to CCN(CC)CC(O)c1cc(-c2ccc(Cl)cc2)nc2c(C)c(Cl)ccc12 (configuration not stated) ?
inactive

Identify the outcome logged in this assay for the compound shown: CN(C)CCCCNc1ccc(NCCCCN(C)C)c2c1C(=O)c1c(O)ccc(O)c1C2=O
inactive

Test call for this compound, please: COc1ccc(/C=C\c2cc(OC)c(OC)c(OC)c2)c(NS(=O)(=O)c2ccc(F)cc2)c1O
active

How was CC[C@@H](C)/C=C(C)/C=C/C(=O)c1c(O)c(-c2ccc(O)cc2)cn(OC2CC(=O)CCC(C)OC(=O)CC2O)c1=O (some centres not stated) classified in this test?
inactive

Sourced from PubChem BioAssay (NCI)
